- testedOn: human Nav1.7 (Homo sapiens)
- Construct: expressed in transfected cells; host or cells: HEK293
- Sequence (Q15858 whole entry): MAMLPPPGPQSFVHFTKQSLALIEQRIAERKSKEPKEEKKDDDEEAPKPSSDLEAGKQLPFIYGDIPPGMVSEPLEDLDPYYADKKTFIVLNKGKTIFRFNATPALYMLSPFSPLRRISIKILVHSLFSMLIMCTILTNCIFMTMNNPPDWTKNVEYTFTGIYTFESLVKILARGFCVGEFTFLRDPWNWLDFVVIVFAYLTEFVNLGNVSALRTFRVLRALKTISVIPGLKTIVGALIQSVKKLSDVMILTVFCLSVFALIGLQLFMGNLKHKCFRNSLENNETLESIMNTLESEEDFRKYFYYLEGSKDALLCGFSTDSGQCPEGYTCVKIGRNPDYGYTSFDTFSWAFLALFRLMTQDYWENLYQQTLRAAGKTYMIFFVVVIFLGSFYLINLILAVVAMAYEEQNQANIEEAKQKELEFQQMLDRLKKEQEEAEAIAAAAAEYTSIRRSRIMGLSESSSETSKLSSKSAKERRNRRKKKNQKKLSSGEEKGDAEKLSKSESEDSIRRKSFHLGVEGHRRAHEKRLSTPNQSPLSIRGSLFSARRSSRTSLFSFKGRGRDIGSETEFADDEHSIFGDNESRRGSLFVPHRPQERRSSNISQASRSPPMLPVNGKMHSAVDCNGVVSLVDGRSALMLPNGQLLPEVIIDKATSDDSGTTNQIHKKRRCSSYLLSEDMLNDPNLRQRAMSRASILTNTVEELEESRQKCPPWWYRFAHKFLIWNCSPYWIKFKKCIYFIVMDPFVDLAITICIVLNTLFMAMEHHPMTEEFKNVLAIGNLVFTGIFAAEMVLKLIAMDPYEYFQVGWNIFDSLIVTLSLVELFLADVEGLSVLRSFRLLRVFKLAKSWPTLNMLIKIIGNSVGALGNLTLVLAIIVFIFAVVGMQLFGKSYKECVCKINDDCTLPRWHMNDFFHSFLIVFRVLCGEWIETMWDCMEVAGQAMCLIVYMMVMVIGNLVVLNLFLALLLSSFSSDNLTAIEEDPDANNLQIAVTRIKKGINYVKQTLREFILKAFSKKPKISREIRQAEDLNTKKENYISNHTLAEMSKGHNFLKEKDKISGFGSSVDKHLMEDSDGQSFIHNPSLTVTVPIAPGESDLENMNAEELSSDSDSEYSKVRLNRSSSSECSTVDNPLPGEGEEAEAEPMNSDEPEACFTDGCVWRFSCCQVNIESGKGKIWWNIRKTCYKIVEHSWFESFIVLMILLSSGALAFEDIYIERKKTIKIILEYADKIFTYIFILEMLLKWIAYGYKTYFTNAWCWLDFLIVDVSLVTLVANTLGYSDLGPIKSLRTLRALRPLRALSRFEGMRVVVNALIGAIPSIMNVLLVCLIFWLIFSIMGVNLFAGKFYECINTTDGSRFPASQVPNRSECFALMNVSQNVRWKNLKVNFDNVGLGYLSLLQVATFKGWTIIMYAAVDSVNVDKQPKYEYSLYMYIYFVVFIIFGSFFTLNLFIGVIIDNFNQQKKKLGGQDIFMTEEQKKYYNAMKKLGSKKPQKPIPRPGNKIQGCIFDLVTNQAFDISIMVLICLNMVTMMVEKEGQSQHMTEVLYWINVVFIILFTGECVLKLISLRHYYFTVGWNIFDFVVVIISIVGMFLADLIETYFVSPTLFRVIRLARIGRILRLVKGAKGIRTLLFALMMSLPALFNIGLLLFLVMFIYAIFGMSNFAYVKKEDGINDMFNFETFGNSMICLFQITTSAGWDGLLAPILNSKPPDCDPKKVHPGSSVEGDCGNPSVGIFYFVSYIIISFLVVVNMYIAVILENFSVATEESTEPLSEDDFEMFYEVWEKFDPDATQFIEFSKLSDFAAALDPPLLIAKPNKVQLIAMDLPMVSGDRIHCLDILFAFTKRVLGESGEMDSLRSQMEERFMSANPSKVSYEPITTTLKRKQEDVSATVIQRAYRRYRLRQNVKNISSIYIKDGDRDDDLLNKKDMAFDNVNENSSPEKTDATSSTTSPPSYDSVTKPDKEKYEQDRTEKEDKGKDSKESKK
- measurementDescription: Nav 1.7 In Vitro PatchXpress (PX) Assay
- Format: cell-based
- conditionSet: HEK 293 cells stably transfected with human Nav1.7; PatchXpress whole cell voltage clamp; partially inactivated state (holding potential yielding 20 to 50% inactivation); read-out: hNav1.7 PX IC50
- Description: Nav 1.7 In Vitro PatchXpress (PX) Assay HEK 293 cells stably transfected with human Nav1.7 were recorded in whole cell voltage clamp mode with the PatchXpress automated electrophysiology system (Molecular Devices, LLC, Sunnyvale, Calif.). Compound effects were measured on a partially inactivated state of the sodium channel. […] Peak sodium current was measured at the end of the compound addition period to determine percent inhibition. […]
readoutKind: IC50 (nM)

1) COc1cc(-c2cccc(Cl)c2F)c(F)cc1-n1c2c(ccc1=O)CN(S(=O)(=O)Nc1cccnn1)CC2: 168
2) COc1cc(-c2cc(F)cc(Cl)c2)c(F)cc1-n1c2c(ccc1=O)CN(S(=O)(=O)Nc1cccnn1)CC2 (single isomer, unassigned) [Example 38-M]: 3120
3) COc1cc(-c2ccc(Cl)c(C)c2)c(F)cc1-n1c2c(ccc1=O)CN(S(=O)(=O)Nc1cccnn1)CC2 (single isomer, unassigned) [Example 33-P]: 21.3
4) COc1cc(-c2ccc(F)c(Cl)c2)c(F)cc1-n1c2c(ccc1=O)CN(S(=O)(=O)Nc1cccnn1)CC2: 80.3

====

- testedOn: human Nav1.7 (Homo sapiens)
- Construct: expressed in transfected cells; host or cells: HEK293
- measurementDescription: Nav 1.7 IWB In Vitro Assay (IonWorks Barracuda)
- Format: cell-based
- conditionSet: HEK293 cells stably transfected with human Nav 1.7; IonWorks Barracuda population patch-clamp; cells clamped to −20 mV for 4 minutes with compound; 26th pulse; read-out: hNav1.7 IWB IC50
pIC50: −log10 of the molar value.
The threshold is inclusive: pIC50 of exactly 8 counts as condition met; values below receive condition not met.

1. COc1cc(-c2ccc(F)c(C)c2)c(F)cc1-n1c2c(ccc1=O)CN(S(=O)(=O)Nc1ncccn1)CC2 (single isomer, unassigned) [Example 29-M]: condition not met
2. COc1cc(-c2ccc(F)c(C)c2)c(C)cc1-n1c2c(ccc1=O)CN(S(=O)(=O)Nc1cccnn1)CC2 (single isomer, unassigned) [Example 93-M]: condition not met
3. COc1cc(OC(F)(F)F)cc(-c2cc(OC)c(-n3c4c(ccc3=O)CN(S(=O)(=O)Nc3cccnn3)CC4)cc2F)c1: condition met
4. COc1cc(-c2cc(F)cc(Cl)c2)c(F)cc1-n1c2c(ccc1=O)CN(S(=O)(=O)Nc1ccccn1)CC2 (single isomer, unassigned) [Example 11-P]: condition not met
5. COc1cc(-c2ccc(F)c(C)c2)c(F)cc1-n1c2c(ccc1=O)CN(S(=O)(=O)Nc1ccon1)CC2 (single isomer, unassigned) [Example 22-M]: condition not met

Where these numbers come from: patent US10472356B2
